# systemUnderTest: Nuclear receptor coactivator 3 (Homo sapiens) (UniProt Q9Y6Q9)
# Sequence (Q9Y6Q9 whole entry, looked up): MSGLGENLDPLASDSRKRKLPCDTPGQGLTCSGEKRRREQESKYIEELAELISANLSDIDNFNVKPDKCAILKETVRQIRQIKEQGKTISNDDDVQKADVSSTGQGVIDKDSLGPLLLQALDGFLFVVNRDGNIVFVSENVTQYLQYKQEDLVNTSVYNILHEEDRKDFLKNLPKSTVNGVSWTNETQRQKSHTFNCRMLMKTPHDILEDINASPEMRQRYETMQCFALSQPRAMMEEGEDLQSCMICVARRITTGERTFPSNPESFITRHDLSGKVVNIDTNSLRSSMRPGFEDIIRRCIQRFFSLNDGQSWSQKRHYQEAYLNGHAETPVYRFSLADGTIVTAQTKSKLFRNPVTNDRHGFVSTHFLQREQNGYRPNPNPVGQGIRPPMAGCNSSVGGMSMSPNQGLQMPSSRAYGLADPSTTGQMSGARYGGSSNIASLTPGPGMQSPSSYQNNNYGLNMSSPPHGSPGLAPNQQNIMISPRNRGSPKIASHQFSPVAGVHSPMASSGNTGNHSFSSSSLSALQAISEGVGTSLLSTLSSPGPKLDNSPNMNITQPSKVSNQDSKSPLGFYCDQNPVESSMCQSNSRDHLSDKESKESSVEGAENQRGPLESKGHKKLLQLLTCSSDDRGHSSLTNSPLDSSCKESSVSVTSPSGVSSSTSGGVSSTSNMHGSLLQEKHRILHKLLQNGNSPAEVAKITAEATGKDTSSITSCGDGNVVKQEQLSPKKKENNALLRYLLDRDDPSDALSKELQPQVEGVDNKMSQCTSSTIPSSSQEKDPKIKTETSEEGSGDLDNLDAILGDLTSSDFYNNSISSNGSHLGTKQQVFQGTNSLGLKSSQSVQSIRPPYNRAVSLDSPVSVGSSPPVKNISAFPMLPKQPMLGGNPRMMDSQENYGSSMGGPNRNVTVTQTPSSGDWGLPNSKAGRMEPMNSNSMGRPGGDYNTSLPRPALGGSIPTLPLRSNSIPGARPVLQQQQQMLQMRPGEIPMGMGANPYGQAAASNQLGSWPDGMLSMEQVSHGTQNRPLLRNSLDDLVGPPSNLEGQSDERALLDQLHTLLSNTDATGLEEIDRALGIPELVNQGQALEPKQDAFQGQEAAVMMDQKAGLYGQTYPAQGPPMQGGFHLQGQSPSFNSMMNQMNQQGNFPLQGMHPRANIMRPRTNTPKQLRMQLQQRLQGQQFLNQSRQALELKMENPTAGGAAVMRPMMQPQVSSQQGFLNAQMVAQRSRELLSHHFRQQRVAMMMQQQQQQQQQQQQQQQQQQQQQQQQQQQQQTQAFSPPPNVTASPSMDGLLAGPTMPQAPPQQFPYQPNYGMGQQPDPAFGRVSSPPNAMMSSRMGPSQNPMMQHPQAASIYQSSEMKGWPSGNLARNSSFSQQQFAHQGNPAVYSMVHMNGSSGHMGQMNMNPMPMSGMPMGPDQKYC
# methodDescription: SRC3 coactivator transcriptional activity inhibitors, confirmation, cell-based, luminescence, quadruplicate (AID 588792);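 further: 0% = DMSO treated cells and 100% = gossypol at 36 µM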
# details: HEK293 GAL4-SRC3 luciferase reporter, at 3.6 µM, active compounds read high
The source made the active and inactive calls.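 How the source made its calls: active means mean inhibition over 43.08%, the solvent-only control mean plus 3 SD; inactive means the rest.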
propertyMeasured: inhibition

Reference set (4 entries):
Oc1ccc(CCNc2ncnc3ccc(Cl)cc23)cc1 : 64.9% (active)
Cc1cc(C)c2nc3nc(C)c(C)cc3c(N)c2c1 : 13.7% (inactive)
CC(C)(CC(=O)O)CC(=O)Nc1ccc(Oc2ccc(C(C)(C)C)cc2)nc1 : 3.47% (inactive)
N=c1c2c(-c3ccccc3)c(-c3ccccc3)n(Cc3ccco3)c2ncn1CCCn1ccnc1 : 34% (inactive)

Query compound follows.
Look at this compound and give its reported inhibition. Cc1ccc(S(=O)(=O)N2CCOCC2)cc1NC(=O)CN1CCN(c2ccc(O)cc2)CC1
12.4% (inactive)

###

# methodDescription: VP16 transactivation inhibitors, counter-screen for SRC1 inhibitor project, cell-based, luminescence, high throughput (AID 588824)
# details: cell-based VP16 transactivation luciferase luminescence; at 3.6 µM; active compounds read high
Activity calls are given as the source filed them. Cut-off read from the data, not from the text of the source: active = inhibition above about 25%; inactive = the rest.
propertyMeasured: inhibition

Reference set (3 entries):
c1ccc(CCc2nn3c(-c4ccncc4)nnc3s2)cc1 : 41.1% (active)
CC(C)(C)c1ccc(Oc2ccc(NC(=O)c3ccccc3C(=O)O)cn2)cc1 : 7.37% (inactive)
CCCC(=O)NC(c1ccccc1OC)c1ccc2cccnc2c1O (configuration not stated) : 41.9% (active)

Look at this compound and give its reported inhibition. Cc1cc(C)c(CN2CCN(C(=O)Cn3cnc4c(NCc5ccccc5)ncnc43)CC2)c(C)c1
43.4% (active)

Look at this compound and give its reported inhibition. CC(=O)Nc1ccc(-c2csc(NC(=O)Nc3ccccc3)n2)cc1
-3.98% (inactive)

Look at this compound and give its reported inhibition. CC(=O)OCC1OC(n2cc(F)c(=O)[nH]c2=O)C(OC(C)=O)C1OC(C)=O (configuration not stated)
22.9% (inactive)

###

# methodDescription: VP16 transactivation reporter inhibitors, counter-screen for LRH-1 inverse agonist project, cell-based, luminescence, high throughput (AID 651615)
# details: Gal4-VP16 luciferase reporter cells, at 3.6 µM
Active and inactive are the calls of the source. Cut-off read from the data, not from the text of the source: active = inhibition above about 33%; inactive = the rest.
Bench note: report the call from active, inactive

// below: answered compounds
S=C(Nc1ccccc1)Nc1ccc(OCc2ccc(Cl)cc2Cl)cc1 : active
O=C(NC(NC(=S)N1CCOCC1)C(Cl)(Cl)Cl)c1ccc(Cl)cc1 (configuration not stated) : inactive
COc1cc(NC(=O)c2ccc([N+](=O)[O-])o2)ccc1NC(=O)c1cccs1 : inactive
NS(=O)(=O)c1ccc(O)c(NC(=O)c2ccc([N+](=O)[O-])o2)c1 : inactive
O=C(N/N=C/c1ccc(O)cc1O)c1ccc(CN2C(=O)c3cccc4cccc2c34)cc1 : active

Any idea what this test logged for Cc1c(NC(=S)NC(=O)c2ccc(Cl)cc2)c(=O)n(-c2ccccc2)n1C ?
inactive

Any idea what this test logged for O=C(C1=C[C@@H](C2CCCCC2)C[C@@H](OCc2ccc(CO)cc2)O1)N1CCN(Cc2ccc3c(c2)OCO3)CC1 ?
inactive

###

# methodDescription: VP16 transactivation inhibitors, counter-screen for SRC1 inhibitor project, cell-based, luminescence, high throughput (AID 588824)
# details: cell-based VP16 transactivation luciferase luminescence; at 3.6 µM; active compounds read high
Each record here notes measured inhibition.
Hi! Could you send only the number? It should be in %, unit omitted.

NS(=O)(=O)c1ccc(Nc2nc(-c3cccnc3)cs2)cc1 : 11.7
NS(=O)(=O)c1ccc(N=Nc2c(O)[nH]c3ccc(Br)cc23)cc1 : 5.38
COCC(C)n1c(C)cc(C(=O)COC(=O)c2cc(=O)[nH]c3ccccc23)c1C (configuration not stated) : -32.1
Cc1ccc(S(=O)(=O)c2nc(-c3ccccc3Cl)oc2NCCCN2CCOCC2)cc1 : -5.68
CCOC(=O)c1c(NC(=O)c2c(-c3ccccc3)noc2C)sc(C)c1-c1ccccc1 : 78.2

Look at this compound and give its reported inhibition. COc1cc(-c2cc3nc4ccccc4n3c(N)c2C#N)cc(OC)c1OC
-12.8

Look at this compound and give its reported inhibition. COc1cccc(/C=N/Nc2ncnc3c2ncn3Cc2ccccc2)c1O
28.4

###

# methodDescription: StAR promoter reporter inhibitors, counter-screen for LRH-1 inverse agonist project, cell-based, luminescence, high throughput (AID 651611)
# details: StAR promoter luciferase reporter counterscreen, at 3.6 µM, active compounds read high
Use met when the recorded inhibition is no lower than 20%; use not met when it is lower.

// below: answered molecules
O=C(C[n+]1ccc(Cc2ccccc2)cc1)Nc1ccc([N+](=O)[O-])cc1Cl : not met
Cc1ccc(-c2csc(NC(=O)c3ccc([N+](=O)[O-])o3)n2)cc1 : not met
O=C(Nc1cc(Cl)ccc1-n1cncn1)c1ccc([N+](=O)[O-])s1 : met
CCN(CC)c1ccc(/C=C/c2cccc[n+]2C)c(OC)c1 : met
COc1cc(C(=O)Nc2ccccc2C2COC(=O)C2=N)cc(OC)c1OC (centres undefined) : not met

Confirm if inhibition reported for the molecule Cc1ccc2[nH]c3c(c2c1)CCCC3NC(=O)CCl (centres undefined) is 20% or above.
met

Confirm if inhibition reported for the molecule COC(=O)c1ccc(NC(=O)CN2CCC(NC(=O)c3ccccc3F)CC2)cc1 is 20% or above.
met

Confirm if inhibition reported for the molecule O=C(COC(=O)c1ccccn1)Nc1cccnc1Cl is 20% or above.
not met

Confirm if inhibition reported for the molecule Oc1ccccc1-c1nc(NCC2CCCO2)c2ccccc2n1 (centres undefined) is 20% or above.
met

Confirm if inhibition reported for the molecule O=C(OCC12CC3CC(CC(C3)C1)C2)c1ccc(NCc2cc(O)ccc2O)cc1 is 20% or above.
met

Confirm if inhibition reported for the molecule COc1ccc(NS(=O)(=O)c2ccc(-c3coc(C)n3)cc2)cc1OC is 20% or above.
not met

Confirm if inhibition reported for the molecule COCCSc1ccccc1C(=O)NCc1ccc2c(c1)OCO2 is 20% or above.
not met

Confirm if inhibition reported for the molecule C#CCN(C[C@@H]1[C@@H](OC(=O)NCC2CCCCC2)[C@@H](OC(=O)NCC2CCCCC2)Cn2c(=O)ccc(=O)n21)S(=O)(=O)c1ccc(C)cc1 is 20% or above.
met

Confirm if inhibition reported for the molecule CC1OC2CC(=O)OC2C2=C1C(=O)c1c(O)cccc1C2=O (centres undefined) is 20% or above.
met

###

# methodDescription: StAR promoter reporter inhibitors, counter-screen for LRH-1 inverse agonist project, cell-based, luminescence, high throughput (AID 651611)
# details: StAR promoter luciferase reporter counterscreen, at 3.6 µM, active compounds read high
Each record here notes measured inhibition.
Hi! Could you send only the number? It should be in %, unit omitted.

Reference set (5 entries):
O=C(Nc1ccc(Nc2ccccc2)cc1)c1cc([N+](=O)[O-])ccc1Cl : 6
O=C(CCl)Nc1cc2[nH]c(=O)[nH]c2cc1Br : 71.3
c1ccc(-c2ccc(-c3nc(-c4ccccn4)no3)cc2)cc1 : 42.4
Cc1ccc(-n2nc(C)c(NC(=O)CCl)c2C)cc1C : 57.9
C/C(=N\N1CCN(c2ccc(Cl)cc2)CC1)c1cccc([N+](=O)[O-])c1 : 12.5

Look at this compound and give its reported inhibition. O=C(NCc1cccnc1)c1ccc(NC(=O)c2ccc(Br)cc2)cc1
70.9

Look at this compound and give its reported inhibition. O=C(COC(=O)C1CC1)NCCc1ccc(Cl)cc1
4.21

Look at this compound and give its reported inhibition. CCCc1nc2cc(C)c(Br)c(C)n2c1Cc1ccc(OC)cc1C
15.2

Look at this compound and give its reported inhibition. COc1ccc(OC)c(N(CCN2C(=O)c3ccccc3C2=O)C(=O)CCl)c1
10.9

Look at this compound and give its reported inhibition. COc1ccc(NC(=O)Cn2nnc(C(=O)Nc3ccccc3C)c2N)cc1
5.36

###

# methodDescription: StAR promoter reporter inhibitors, counter-screen for LRH-1 inverse agonist project, cell-based, luminescence, high throughput (AID 651611)
# details: StAR promoter luciferase reporter counterscreen, at 3.6 µM
Calls of active or inactive are those of the source. Rule as the data show it: active = inhibition above about 28%; inactive = the rest.
Bench note: report the call from active, inactive

// below: answered compounds
O=C(O)c1ccc(N/N=C/c2ccc3nccnc3c2)cc1 : active
COc1ccc(-n2ncc3c(N(C)C4CCCCC4)ncnc32)cc1 : active
CCOc1ccc(Cc2nnc(SCC(=O)Nc3ccc(C(C)=O)cc3)[nH]c2=O)cc1 : inactive
Cc1cc(N2CCN(c3nc4ccccc4s3)CC2)n2ncnc2n1 : inactive
CCC1=C(CC2NCCc3ccccc32)CC2c3cc(OC)c(OC)cc3CCN2C1 (stereo not drawn) : active
Cc1ccc(NC(=O)CN2CCC(NC(=O)C3CCCCC3)CC2)c(Br)c1 : inactive
Cc1[nH]c(=O)c(C(=O)/C=C/c2ccccc2)c2c1CCCC2 : active
c1ccc(-c2nc(N3CCCCCC3)c3ccccc3n2)nc1 : inactive
c1cnn(-c2nc(N3CCOCC3)nc(N3CCOCC3)n2)c1 : active
CCCCNC(=O)COC(=O)c1c2c(nc3ccccc13)/C(=C\c1cccs1)CC2 : inactive

Any idea what this test logged for COc1ccc(NS(=O)(=O)c2ccc(OCC(=O)N3CCOCC3)cc2)cc1Cl ?
inactive

Any idea what this test logged for CCCCCCCCNc1ncnc2ccccc12 ?
inactive

Any idea what this test logged for COCCn1c(C)cc(C(=O)COC(=O)c2ccccc2Br)c1C ?
active

Any idea what this test logged for COc1cc(-c2cc(C(=O)NCc3ccc(S(N)(=O)=O)cc3)c3ccccc3n2)cc(OC)c1OC ?
inactive

Any idea what this test logged for COC(=O)c1c(NC(=O)c2ccc([N+](=O)[O-])o2)sc2c1CCN(C(C)C)C2 ?
active

Any idea what this test logged for Cc1cc(C)c2c(=O)[nH]c(SCC(=O)Nc3ccc(Br)cc3)nc2n1 ?
inactive

Any idea what this test logged for O=NN(CC(=O)NNc1ccccc1)CC(=O)NNc1ccccc1 ?
active

Any idea what this test logged for CCOc1ccc(NC(=O)CSc2nccn(-c3ccc4c(c3)OCCO4)c2=O)cc1 ?
inactive

Any idea what this test logged for O=C(CSc1ccccn1)Nc1nonc1[N+](=O)[O-] ?
inactive

Any idea what this test logged for O=C(COC(=O)c1ccc(=O)n(Cc2ccccc2)n1)Nc1ccc2c(c1)OCCO2 ?
inactive

Any idea what this test logged for CC1(C(=O)NCc2ccc3c(c2)OCO3)CCN1C(=O)Cc1ccc(Cl)cc1Cl (stereo not drawn) ?
inactive

Any idea what this test logged for COc1cc(N)c(Cl)cc1C(=O)OCC(=O)N1c2ccccc2NC(=O)C1(C)C ?
inactive
